Entries annotated with measured IC50
- target.under.test: recombinant human GBA (beta-glucocerebrosidase) (Homo sapiens, UniProt P04062)
- Sequence (P04062 40-536): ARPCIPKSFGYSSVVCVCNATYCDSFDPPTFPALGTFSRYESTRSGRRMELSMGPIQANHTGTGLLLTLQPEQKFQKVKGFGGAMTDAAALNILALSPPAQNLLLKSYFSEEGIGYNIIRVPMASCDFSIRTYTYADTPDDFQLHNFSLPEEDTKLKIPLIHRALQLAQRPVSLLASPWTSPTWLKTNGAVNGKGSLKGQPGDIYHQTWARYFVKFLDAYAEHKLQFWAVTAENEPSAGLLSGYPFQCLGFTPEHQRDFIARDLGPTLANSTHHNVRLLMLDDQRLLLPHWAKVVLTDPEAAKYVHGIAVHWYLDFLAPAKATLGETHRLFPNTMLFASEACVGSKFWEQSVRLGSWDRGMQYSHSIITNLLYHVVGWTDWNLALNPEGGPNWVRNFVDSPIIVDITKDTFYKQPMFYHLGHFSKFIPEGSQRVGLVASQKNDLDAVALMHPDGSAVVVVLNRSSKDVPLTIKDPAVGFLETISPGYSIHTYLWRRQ
- method.description: Beta-glucocerebrosidase (GBA, glucosylceramidase) assay (4-methylumbelliferyl-beta-D-pyranoside substrate, fluorescence)

> print(dat)
                                   compound  data.value
1  [N-]=[N+]=Nc1ccc(NCCCCCCN2C[C@H](O)[C@@H](O)[C@H](O)[C@H]2CO)c(C(=O)O)c1 [Compound 1297]     3.52 µM
2  CN(Cc1cccc(CN2C[C@H](O)[C@@H](O)[C@H](O)[C@H]2CO)c1)c1ccc(CN2CCCO2)cc1[N+](=O)[O-] [Compound 1020]     76.3 µM
3  [N-]=[N+]=Nc1ccc(NCCc2ccc(CCN3C[C@H](O)[C@@H](O)[C@H](O)[C@H]3CO)c3c2OCCO3)c([N+](=O)[O-])c1 [Compound 1173]     5.32 µM
4  OC[C@@H]1[C@@H](O)[C@H](O)[C@@H](O)CN1Cc1ccc(CNc2ccc(CN3CCCO3)cc2)cc1 [Compound 1092]      121 µM
5  [N-]=[N+]=Nc1ccc(NCC[C@H]2CC[C@H](CCN3C[C@H](O)[C@@H](O)[C@H](O)[C@H]3CO)CC2)c([N+](=O)[O-])c1 [Compound 1107]    0.362 µM

Now for the compound whose IC50 we want.
Bench note: what IC50 did Cc1cc(NCc2cccc(CN3C[C@H](O)[C@@H](O)[C@H](O)[C@H]3CO)c2)cc(-c2ncccn2)c1 [Compound 1035] show?
> 100 µM

====

In this section, each of the compounds is paired with its reported IC50.
- target.under.test: recombinant alpha-glucosidase II (murine full-length glucosidase II, alpha and beta subunits, Glu 2) (Mus musculus)
- Construct: made in house; host or cells: HEK-293T cells transduced with BacMam viruses (75% alpha, 25% beta); protein harvested from culture supernatant
- Sequence (O08795 15-521): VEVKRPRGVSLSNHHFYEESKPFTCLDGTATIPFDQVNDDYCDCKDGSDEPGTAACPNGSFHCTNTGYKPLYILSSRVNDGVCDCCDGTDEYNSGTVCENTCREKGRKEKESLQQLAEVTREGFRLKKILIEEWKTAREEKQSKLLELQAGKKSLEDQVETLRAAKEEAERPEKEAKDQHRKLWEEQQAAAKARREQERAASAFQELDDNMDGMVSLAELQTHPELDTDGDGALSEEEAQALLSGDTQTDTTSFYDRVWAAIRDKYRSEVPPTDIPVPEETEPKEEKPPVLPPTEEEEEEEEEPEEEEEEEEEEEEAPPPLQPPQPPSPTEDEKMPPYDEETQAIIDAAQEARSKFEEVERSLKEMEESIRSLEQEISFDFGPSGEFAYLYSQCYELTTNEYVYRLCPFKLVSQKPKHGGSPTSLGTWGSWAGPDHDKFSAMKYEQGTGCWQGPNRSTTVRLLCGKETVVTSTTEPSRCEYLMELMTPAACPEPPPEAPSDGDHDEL
- Sequence (Q8BHN3 33-944): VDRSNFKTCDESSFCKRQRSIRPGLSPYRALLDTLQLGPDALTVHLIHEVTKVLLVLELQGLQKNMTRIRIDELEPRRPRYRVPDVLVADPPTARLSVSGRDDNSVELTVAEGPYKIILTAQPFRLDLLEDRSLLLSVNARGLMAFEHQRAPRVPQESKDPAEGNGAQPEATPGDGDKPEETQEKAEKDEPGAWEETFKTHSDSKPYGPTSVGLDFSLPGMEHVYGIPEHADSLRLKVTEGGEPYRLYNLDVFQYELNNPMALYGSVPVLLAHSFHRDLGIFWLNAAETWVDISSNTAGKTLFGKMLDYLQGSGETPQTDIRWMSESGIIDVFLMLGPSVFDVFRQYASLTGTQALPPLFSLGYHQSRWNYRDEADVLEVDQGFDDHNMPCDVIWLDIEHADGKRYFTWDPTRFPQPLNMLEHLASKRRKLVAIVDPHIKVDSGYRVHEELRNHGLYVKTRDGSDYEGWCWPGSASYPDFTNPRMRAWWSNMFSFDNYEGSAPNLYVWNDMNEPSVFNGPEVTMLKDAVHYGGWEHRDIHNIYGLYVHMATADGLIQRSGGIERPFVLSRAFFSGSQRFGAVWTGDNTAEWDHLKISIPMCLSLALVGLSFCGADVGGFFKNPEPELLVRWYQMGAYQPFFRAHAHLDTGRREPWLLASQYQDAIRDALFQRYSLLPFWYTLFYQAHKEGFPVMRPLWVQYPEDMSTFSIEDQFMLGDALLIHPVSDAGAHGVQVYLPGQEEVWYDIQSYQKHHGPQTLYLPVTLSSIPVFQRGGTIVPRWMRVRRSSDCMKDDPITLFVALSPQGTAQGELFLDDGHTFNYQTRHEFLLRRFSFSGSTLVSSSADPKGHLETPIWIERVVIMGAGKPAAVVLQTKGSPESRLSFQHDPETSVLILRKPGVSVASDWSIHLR
- method.description: Alpha-glucosidase II assay (4-methylumbelliferyl-alpha-D-pyranoside substrate, fluorescence)
- Type: biochemical
- condition.summary: Glucosidase 2; read-out: Glu2 IC50

Recorded IC50, per entry:
> print(dat)
                            chemical.string  data.value
1  Nc1ccc(NCCn2cc(CCN3C[C@H](O)[C@@H](O)[C@H](O)[C@H]3CO)nn2)c([N+](=O)[O-])c1Cl      225 nM
2  O=C(O)c1cc(Cl)cc(NCCc2ccc(CCN3C[C@H](O)[C@@H](O)[C@H](O)[C@H]3CO)cc2)c1      139 nM
3  [N-]=[N+]=Nc1ccc(NCCC23CC(CCN4C[C@H](O)[C@@H](O)[C@H](O)[C@H]4CO)(C2)C3)c([N+](=O)[O-])c1        5 nM
4  N#Cc1cc(NCc2ccc(CN3C[C@H](O)[C@@H](O)[C@H](O)[C@H]3CO)cc2)cc(-c2cccnn2)c1        2 nM
5  OC[C@@H]1[C@@H](O)[C@H](O)[C@@H](O)CN1CCCCCCNc1ccc(-c2cccnn2)cc1Cl      < 1 nM

Now for the compound whose IC50 we want.
What does the data say about its IC50? Entry: O=[N+]([O-])c1cc(-c2ccc[nH]2)ccc1NCc1ccc(CN2C[C@H](O)[C@@H](O)[C@H](O)[C@H]2CO)cc1
< 1 nM
